# Test system: rAmpC CNE-2 from C. neteri ATCC 33855
# Format: biochemical
# test conditions: Ki or Km,apparent; 200 µM nitrocefin reporter, 500 nM rAmpC; all standard deviations ≤15%
Tag: MET if measured Km is not below 10 µM, NOT MET if it is.

molecule | class name
C[C@@H](O)[C@H]1C(=O)N2C(C(=O)O)=C(SCCN=CN)C[C@H]12 [Imipenem, imipenem] | NOT MET

Kindly review the next molecule as well.
Qu. Km >= 10 µM for CC1=C(C(=O)O)N2C(=O)[C@@H](NC(=O)[C@H](N)c3ccccc3)[C@H]2SC1 [Cephalexin, cephalexin] ?
Ans. NOT MET
